Test: Pharmacokinetic study in rabbit after nasal or IV administration (plasma MPZ and AMPZ by HPLC with fluorescence detection)
Format: in vivo, lapin
Conditions: MPZ in plasma after nasal administration, about 1 mg, lapin, n=2
measured.metric: Cmax (ng/mL)

# compound, measured
data = [
    ("CS(=O)(=O)c1ccc2c(c1)N(CCCN1CCC(C(N)=O)CC1)c1ccccc1S2 [MPZ, métopimazine]", 9.2),
]

====

Test: Pharmacokinetic study in rabbit after nasal or IV administration (plasma MPZ and AMPZ by HPLC with fluorescence detection)
Type: in vivo, lapin
Conditions: plasma, 1 mg, lapin, nasal route compared with IV, b45 = formulation tested (Formule 1), b50 = Formule 2, read-out: biodisponibilité de la MPZ par voie nasale

# compound, bioavailability
records = [
    ("CS(=O)(=O)c1ccc2c(c1)N(CCCN1CCC(C(N)=O)CC1)c1ccccc1S2 [MPZ, métopimazine]", "~50%"),
]
